# TEST SYSTEM: C-C chemokine receptor type 2 (Homo sapiens, UniProt P41597)
# Sequence (P41597 whole entry, looked up): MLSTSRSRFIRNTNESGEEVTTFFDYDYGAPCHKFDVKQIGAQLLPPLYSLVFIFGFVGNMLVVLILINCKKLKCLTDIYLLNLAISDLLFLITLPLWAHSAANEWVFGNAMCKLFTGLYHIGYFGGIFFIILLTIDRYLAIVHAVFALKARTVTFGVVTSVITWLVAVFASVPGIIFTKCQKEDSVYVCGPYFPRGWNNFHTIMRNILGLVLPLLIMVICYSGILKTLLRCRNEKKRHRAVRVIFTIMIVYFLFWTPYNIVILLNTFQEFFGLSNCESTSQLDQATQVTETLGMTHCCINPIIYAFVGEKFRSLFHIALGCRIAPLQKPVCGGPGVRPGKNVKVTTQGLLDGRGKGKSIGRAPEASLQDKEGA
# ASSAY TEXT: Displacement of [125I]-CCL2 from human CCR2 receptor expressed in human U2OS cell membrane at 1 uM relative to control
# Type: cell membranes
QUANTITY MEASURED: inhibition
State the result as a value with its unit after it.

CC(C)[C@]1(C(=O)NCc2cc(C(F)(F)F)cc(C(F)(F)F)c2)CC[C@@H](NC2CCc3cc(F)ccc32)C1 (some centres undefined) ... 30%
CC(C)[C@]1(C(=O)NCc2cc(C(F)(F)F)cc(C(F)(F)F)c2)CC[C@@H](NC2CCCc3c(C(=O)O)cccc32)C1 (some centres undefined) ... 0%
CC(C)[C@]1(C(=O)NCc2cc(C(F)(F)F)cc(C(F)(F)F)c2)CC[C@@H](NC2CCc3ccc(Cl)cc32)C1 (some centres undefined) ... 28%

Could you now consider this next compound?
Challenge: Entry COc1cccc2c1CCC2N[C@@H]1CC[C@@](C(=O)NCc2cc(C(F)(F)F)cc(C(F)(F)F)c2)(C(C)C)C1 (some centres undefined) needs its inhibition filled in; supply it.
Response given: 30%

---

# TEST SYSTEM: C-C chemokine receptor type 2 (Homo sapiens)
# ASSAY TEXT: Displacement of [3H]INCB3344 from human CCR2 receptor expressed in human U2OS cell membrane assessed as residence time
Binarize TIME at 0.04 h; below is Satisfied, at or above is Not satisfied.

CC(C)[C@]1(C(=O)NCc2cc(C(F)(F)F)cc(C(F)(F)F)c2)CC[C@@H](NC2CCCCC2)C1 ... Satisfied
CC(C)[C@]1(C(=O)NCc2cc(C(F)(F)F)cc(C(F)(F)F)c2)CC[C@@H](NC2CCc3ccccc32)C1 (stereo partly specified) ... Not satisfied
CC(C)[C@]1(C(=O)NCc2cc(C(F)(F)F)cc(C(F)(F)F)c2)CC[C@@H](NC2CCc3cc(Br)ccc32)C1 (single isomer, unassigned; diastereomer 1) ... Not satisfied

Challenge: Consider the compound CC(C)[C@]1(C(=O)NCc2cc(C(F)(F)F)cc(C(F)(F)F)c2)CC[C@@H](NC2CCc3cc(Br)ccc32)C1 (stereo in doubt; 22b) . Is its TIME strictly less than 0.04 h?
Response given: Not satisfied

Challenge: In plain terms, does CC(C)[C@]1(C(=O)NCc2cc(C(F)(F)F)cc(C(F)(F)F)c2)CC[C@@H](NC2CCCc3ccccc32)C1 (stereo partly specified) come in under 0.04 h for TIME?
Response given: Not satisfied
